Origin of measurements: patent US9868758B2

experiment notes: Single dose oral pharmacokinetic study
Design: species or system mice
conditions used: mouse, in vivo, po, 30 mg/kg
measured endpoint: AUC(0-t) (µg·h/mL)

C=C(C)[C@@H]1CC[C@]2(C(=O)N3CCC[C@H]3c3nc(-c4ccccc4)cn3CCN(C)C)CC[C@]3(C)[C@H](CC[C@@H]4[C@@]5(C)CC[C@H](OC(=O)[C@H]6C[C@@H](C(=O)O)C6(C)C)C(C)(C)[C@@H]5CC[C@]43C)[C@@H]12 [Compound 5]	292

----------
experiment notes: Single dose oral pharmacokinetic study
Parameters: species or system mice
conditions used: mouse, in vivo, po, 30 mg/kg
Is AUC(0-t) at least 300 µg·h/mL? Then met. If not, not met.

CN(C)CCn1cc(-c2cccnc2)nc1[C@@H]1CCCN1C(=O)[C@]12CC[C@@H](C3(C)CC3)[C@@H]1[C@H]1CC[C@@H]3[C@@]4(C)CC[C@H](OC(=O)[C@H]5C[C@@H](C(=O)O)C5(C)C)C(C)(C)[C@@H]4CC[C@@]3(C)[C@]1(C)CC2 [Compound 19]	not met
C=C(C)[C@@H]1CC[C@]2(C(=O)N3CCC[C@H]3c3nc(-c4ccncc4)cn3CCN3CCCC3)CC[C@]3(C)[C@H](CC[C@@H]4[C@@]5(C)CC[C@H](OC(=O)[C@H]6C[C@@H](C(=O)O)C6(C)C)C(C)(C)[C@@H]5CC[C@]43C)[C@@H]12 [Compound 9]	not met
C=C(C)[C@@H]1CC[C@]2(C(=O)N3CCC[C@H]3c3nc(-c4ccccc4)cn3C)CC[C@]3(C)[C@H](CC[C@@H]4[C@@]5(C)CC[C@H](OC(=O)CC(C)(C)C(=O)O)C(C)(C)[C@@H]5CC[C@]43C)[C@@H]12 [Compound 15]	met

----------
experiment notes: Single dose oral pharmacokinetic study
Parameters: species or system mice
conditions used: mouse, in vivo, po, 30 mg/kg
# Cmax values compiled below
measured endpoint: Cmax (ng/mL)

C=C(C)[C@@H]1CC[C@]2(C(=O)N3CCC[C@H]3c3nc(-c4ccccc4)cn3CCN(C)C)CC[C@]3(C)[C@H](CC[C@@H]4[C@@]5(C)CC[C@H](OC(=O)CC(C)(C)C(=O)O)C(C)(C)[C@@H]5CC[C@]43C)[C@@H]12	9030
C=C(C)[C@@H]1CC[C@]2(C(=O)N3CCC[C@H]3c3nc(-c4ccccc4)cn3CCOCCOC)CC[C@]3(C)[C@H](CC[C@@H]4[C@@]5(C)CC[C@H](OC(=O)[C@H]6C[C@@H](C(=O)O)C6(C)C)C(C)(C)[C@@H]5CC[C@]43C)[C@@H]12	11400

----------
experiment notes: Single dose oral pharmacokinetic study
Design: species or system mice
conditions used: mouse, in vivo, po, 30 mg/kg
Binned AUC(0-t); ranges: 1 (below 200 µg·h/mL), 2 (200 µg·h/mL to below 400 µg·h/mL), 3 (400 µg·h/mL or more)

C=C(C)[C@@H]1CC[C@]2(C(=O)N3CCC[C@H]3c3nc(-c4ccccc4)cn3CCOC)CC[C@]3(C)[C@H](CC[C@@H]4[C@@]5(C)CC[C@H](OC(=O)[C@H]6C[C@@H](C(=O)O)C6(C)C)C(C)(C)[C@@H]5CC[C@]43C)[C@@H]12 [Compound 4]	2
C=C(C)[C@@H]1CC[C@]2(C(=O)N3C[C@H](OCCOC)C[C@H]3c3nc(-c4ccccc4)cn3CCN(C)C)CC[C@]3(C)[C@H](CC[C@@H]4[C@@]5(C)CC[C@H](OC(=O)[C@H]6C[C@@H](C(=O)O)C6(C)C)C(C)(C)[C@@H]5CC[C@]43C)[C@@H]12 [Compound 25]	3
C=C(C)[C@@H]1CC[C@]2(C(=O)N3CCC[C@H]3c3nc(C(C)(C)C)cn3CCN(C)C)CC[C@]3(C)[C@H](CC[C@@H]4[C@@]5(C)CC[C@H](OC(=O)[C@H]6C[C@@H](C(=O)O)C6(C)C)C(C)(C)[C@@H]5CC[C@]43C)[C@@H]12 [Compound 11]	3
C=C(C)[C@@H]1CC[C@]2(C(=O)N3CCC[C@H]3c3nc4ccccc4n3CCN3CCCC3)CC[C@]3(C)[C@H](CC[C@@H]4[C@@]5(C)CC[C@H](OC(=O)[C@H]6C[C@@H](C(=O)O)C6(C)C)C(C)(C)[C@@H]5CC[C@]43C)[C@@H]12 [Compound 30]	3
C=C(C)[C@@H]1CC[C@]2(C(=O)N3CCC[C@H]3c3nc(-c4ccccc4)cn3CCN3CCCC3)CC[C@]3(C)[C@H](CC[C@@H]4[C@@]5(C)CC[C@H](OC(=O)[C@H]6C[C@@H](C(=O)O)C6(C)C)C(C)(C)[C@@H]5CC[C@]43C)[C@@H]12 [Compound 10]	1
C=C(C)[C@@H]1CC[C@]2(C(=O)N3CCC[C@H]3c3nc4ccccc4n3CCN(C)C)CC[C@]3(C)[C@H](CC[C@@H]4[C@@]5(C)CC[C@H](OC(=O)[C@H]6C[C@@H](C(=O)O)C6(C)C)C(C)(C)[C@@H]5CC[C@]43C)[C@@H]12 [Compound 29]	3
C=C(C)[C@@H]1CC[C@]2(C(=O)N3CCC[C@H]3c3nc(-c4ccccc4)cn3CCOC)CC[C@]3(C)[C@H](CC[C@@H]4[C@@]5(C)CC[C@H](OC(=O)CC(C)(C)C(=O)O)C(C)(C)[C@@H]5CC[C@]43C)[C@@H]12 [Compound 17]	2
C=C(C)[C@@H]1CC[C@]2(C(=O)N3CCC[C@H]3c3nc(-c4ccncc4)cn3CCN(C)C)CC[C@]3(C)[C@H](CC[C@@H]4[C@@]5(C)CC[C@H](OC(=O)[C@H]6C[C@@H](C(=O)O)C6(C)C)C(C)(C)[C@@H]5CC[C@]43C)[C@@H]12 [Compound 8]	2
C=C(C)[C@@H]1CC[C@]2(C(=O)N3CCC[C@H]3c3nc(-c4cccnc4)cn3CCN(C)C)CC[C@]3(C)[C@H](CC[C@@H]4[C@@]5(C)CC[C@H](OC(=O)CC(C)(C)C(=O)O)C(C)(C)[C@@H]5CC[C@]43C)[C@@H]12 [Compound 18]	1
C=C(C)[C@@H]1CC[C@]2(C(=O)N3CCC[C@H]3c3nc(-c4cccnc4)cn3CCN(C)C)CC[C@]3(C)[C@H](CC[C@@H]4[C@@]5(C)CC[C@H](OC(=O)[C@H]6C[C@@H](C(=O)O)C6(C)C)C(C)(C)[C@@H]5CC[C@]43C)[C@@H]12 [Compound 6]	2
C=C(C)[C@@H]1CC[C@]2(C(=O)N3CCC[C@H]3c3nc(-c4ccccc4)cn3C)CC[C@]3(C)[C@H](CC[C@@H]4[C@@]5(C)CC[C@H](OC(=O)[C@H]6C[C@@H](C(=O)O)C6(C)C)C(C)(C)[C@@H]5CC[C@]43C)[C@@H]12 [Compound 1]	2
C=C(C)[C@@H]1CC[C@]2(C(=O)N3C[C@H](OCCOC)C[C@H]3c3nc(-c4ccccc4)cn3CCN3CCCC3)CC[C@]3(C)[C@H](CC[C@@H]4[C@@]5(C)CC[C@H](OC(=O)[C@H]6C[C@@H](C(=O)O)C6(C)C)C(C)(C)[C@@H]5CC[C@]43C)[C@@H]12 [Compound 27]	2
C=C(C)[C@@H]1CC[C@]2(C(=O)N3CCC[C@H]3c3nc(-c4ccccc4)cn3CCOCCOC)CC[C@]3(C)[C@H](CC[C@@H]4[C@@]5(C)CC[C@H](OC(=O)[C@H]6C[C@@H](C(=O)O)C6(C)C)C(C)(C)[C@@H]5CC[C@]43C)[C@@H]12 [Compound 2]	2
